B1: glmS ribozyme (parent)
chain: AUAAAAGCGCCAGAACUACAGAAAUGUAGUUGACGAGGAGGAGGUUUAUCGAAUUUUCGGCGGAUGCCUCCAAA

Variants of: B1
experiment.notes: kcat; higher = faster cleavage; RNA array
cond: with glucosamine-6-phosphate
This sample holds only a part of the variants without activity.
Reported log10(kcat) values for a set of variants
measured.metric: log10(kcat) (log10 of the value in s⁻¹)

{"mutant.code": "U47G C71G", "recorded.number": -3.55}
{"mutant.code": "A12U G13U", "recorded.number": -3.85}
{"mutant.code": "A39U U46C", "recorded.number": -1.93}
{"mutant.code": "C11U C50G C58A", "recorded.number": -3.80}
{"mutant.code": "G44U C67A", "recorded.number": -1.60}
{"mutant.code": "G41A U47A", "recorded.number": -3.20}
{"mutant.code": "U47G U55G", "recorded.number": -2.22}
{"mutant.code": "U30G C58G A64C C67G C71G", "recorded.number": -4.36}
{"mutant.code": "A48G C70U", "recorded.number": -3.63}
{"mutant.code": "A14U U69A", "recorded.number": -3.95}
{"mutant.code": "U54G A64U", "recorded.number": -4.01}
{"mutant.code": "A39U G43U", "recorded.number": -3.25}
{"mutant.code": "A39U G40A C67A", "recorded.number": -3.56}
{"mutant.code": "U55G U69G", "recorded.number": -4.11}
{"mutant.code": "A33C U47C", "recorded.number": -4.37}
